Please provide measured OD450 (参考630nm) for the entries that follow.
target: 肺炎支原体天然抗原(购自Microbix) (Mycoplasma pneumoniae); assay: indirect ELISA, antigen coated at 2 ug/ml, antibody 1.88 ng/ml
Respond numerically; units are OD and should not be typed.

Inquiry: Please give the measured OD450 (参考630nm) for this binder: Anti-MP-22A9mut6 (antibody, mouse IgG1, kappa, V domains shown) VH: QAYLQQSGAELVRSGASVKMSCKASGYTFTTYNMHWVKQTPGQGLEWIGYVHPGYGITYYSQKFKGKATLTADTSSSTAYMLLSSITSEDSAVYFCTRSYYGYSYWFFDVWGAGTTVTVSS VL: NIVMTQSPKSVSMSVGERVTLNCKASENVGSYVAWYQQKPDRSPKLLIHGASNRYTGVPDRFTGSGSTTDFTLTLSSVQAEDLADYHCGQTYNYPYTFGGGTKLEIKR
Reply text: 0.339

Inquiry: Item Anti-MP-22A9mut4 (antibody, mouse IgG1, kappa, V domains shown) VH: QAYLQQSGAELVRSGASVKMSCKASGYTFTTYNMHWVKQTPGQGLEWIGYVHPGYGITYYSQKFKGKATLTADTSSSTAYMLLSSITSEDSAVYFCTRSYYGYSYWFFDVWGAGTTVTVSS VL: NIVMTQSPKSVSMSVGERVTLNCKASENVGSYVAWYQQKPDRSPKLLIHGASNRYTGVPDRFTGSGSTTDFTLTISSVQAEDLADYHCGQTYNYPYTFGGGTKLEIKR has what recorded OD450 (参考630nm)?
Reply text: 0.401

Inquiry: I'd like to know its OD450 (参考630nm). The binder in question is Anti-MP-22A9mut1 (antibody, mouse IgG1, kappa, V domains shown) VH: QAYLQQSGAELVRSGASVKMSCKASGYTFTTYNMHWVKQTPGQGLEWIGYVHPGYGITYYSQKFKGKATLTADTSSSTAYMILSSLTSEDSAVYFCTRSYYGYSYWFFDVWGAGTTVTVSS VL: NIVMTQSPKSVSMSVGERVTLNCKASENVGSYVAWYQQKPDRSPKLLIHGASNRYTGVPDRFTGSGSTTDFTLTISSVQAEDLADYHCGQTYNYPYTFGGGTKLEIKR
Reply text: 0.391

Inquiry: Can you share its OD450 (参考630nm)? I mean this binder: Anti-MP-22A9mut3 (antibody, mouse IgG1, kappa, V domains shown) VH: QAYLQQSGAELVRSGASVKMSCKASGYTFTTYNMHWVKQTPGQGLEWIGYVHPGYGITYYSQKFKGKATITADTSSSTAYMLLSSLTSEDSAVYFCTRSYYGYSYWFFDVWGAGTTVTVSS VL: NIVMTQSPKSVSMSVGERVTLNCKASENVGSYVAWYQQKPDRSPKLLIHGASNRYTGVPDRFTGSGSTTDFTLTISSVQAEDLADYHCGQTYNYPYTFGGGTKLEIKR
Reply text: 0.512
